tested on: 857T Tsc1+; construct: Tsc1 wild-type; test: cells; design: cell proliferation by crystal violet staining, absorbance 540 nm; settings: 72 h
Recorded Endpoint: IC50 (nM)
Numbers only, in nM.

**Query** # get_value(readout= IC50, system= 857T Tsc1+) for CC(C)n1nc(-c2ccc3oc(N)nc3c2)c2c(N)ncnc21 [MLN0128]
**Result** 70.8
